tested on: Escherichia coli (ATCC 25922); experiment: Antimicrobial activity (MBC), E. coli ATCC 25922; assay type: cell-based; conditions: ATCC25922, E. coli ATCC 25922, pH 4 (Sal), 1 h exposure at room temperature, read-out: Minimum Bactericidal Concentration (MBC) (≧99.9% kill)
Property label: MBC

Problem: Given the entry "CC(C)(C[N+](C)(C)CCS(=O)(=O)O)N(Cl)Cl.[Cl-]" , report its measured MBC.
Result: 64 µg/mL

Problem: Given the entry "CC(C)(CC[N+]1(C)CCC(F)(F)CC1)N(Cl)Cl.[Cl-]" , report its measured MBC.
Result: 4 µg/mL

Problem: Given the entry "CC(C)(CC[N+](C)(C)C)N(Cl)Cl.[Cl-]" , report its measured MBC.
Result: 2 µg/mL

Problem: Given the entry "CC(=O)N1CC[N+](C)(CC(C)(C)N(Cl)Cl)CC1.[Cl-]" , report its measured MBC.
Result: 64 µg/mL

Problem: Given the entry CC(C)(CC[N+]12CCC(CC1)CC2)N(Cl)Cl [Compound 21-120, methanesulfonate] , report its measured MBC.
Result: 8 µg/mL

Problem: Given the entry "CC1(C)CC[N+](C)(CCC(C)(C)N(Cl)Cl)CC1.[Cl-]" , report its measured MBC.
Result: 16 µg/mL

Problem: Given the entry "CC(C)(C[N+]1(C)CCCCC1)N(Cl)Cl.[Cl-]" , report its measured MBC.
Result: 16 µg/mL

Problem: Given the entry "CC(C)(CC[N+](C)(C)CCC[N+](C)(C)C)N(Cl)Cl.[Cl-].[Cl-]" , report its measured MBC.
Result: 16 µg/mL

Problem: Given the entry "CC(C)(CCC[N+](C)(C)C)N(Cl)Cl.[Cl-]" , report its measured MBC.
Result: 8 µg/mL

Problem: Given the entry "CC(C)(CC[N+](C)(C)CC(F)(F)F)N(Cl)Cl.[Cl-]" , report its measured MBC.
Result: 4 µg/mL

Problem: Given the entry "CC(C)(CC[N+]1(C)CCCCC1)N(Cl)Cl.[Cl-]" , report its measured MBC.
Result: 2 µg/mL

Problem: Given the entry "CC[N+](C)(CC)CCC(C)(C)N(Cl)Cl.[Cl-]" , report its measured MBC.
Result: 8 µg/mL

Problem: Given the entry "CC(C)(CCC[P+](C)(C)C)N(Cl)Cl.[Cl-]" , report its measured MBC.
Result: 4 µg/mL

Problem: Given the entry "CN(CC[N+](C)(C)C)C(=O)CC(C)(C)N(Cl)Cl.[Cl-]" , report its measured MBC.
Result: 16 µg/mL

* * *

test system: mouse fibroblast cells (ATCC CCL-1, L929); test: Cytotoxicity, WST-8 colorimetric assay; format: cell-based; settings: pH 4 (Sal), 60 min exposure
Property label: CT50 (concentration that results in survival of 50% of the cells)
Provide the measurement as a number trailed by its unit.

Problem: Given the entry "CC(=O)N1CC[N+](C)(CC(C)(C)N(Cl)Cl)CC1.[Cl-]" , report its measured CT50 (concentration that results in survival of 50% of the cells).
Result: 0.9 mM

Problem: Given the entry "CC(C)(CC[N+]1(C)CCCCC1)N(Cl)Cl.[Cl-]" , report its measured CT50 (concentration that results in survival of 50% of the cells).
Result: 0.9 mM

Problem: Given the entry "CC(C)(CC[N+]1(C)CCCCCC1)N(Cl)Cl.[Cl-]" , report its measured CT50 (concentration that results in survival of 50% of the cells).
Result: 0.9 mM
